- Test system: Don
- Assay Remarks: Growth inhibition of Don-6 cell lines at 1.0 mM concentration
- Assay type: functional
- Condition: Cricetulus griseus
Definition: the class of an entry is the range in bucket A = under 6%, bucket B = from 6% up to 40%, bucket C = 40% and over that contains its inhibition at 1000 µM.

Use these answered entries as a reference point.
- Molecule: "NC(CSc1cc(CC(N)C(=O)O)c(SCC(N)C(=O)O)c(O)c1O)C(=O)O (stereo unspecified)"
  Class: "bucket C"
- Molecule: "NC(CSc1cccc(O)c1O)C(=O)O (stereo unspecified)"
  Class: "bucket B"
- Molecule: "NC(CSc1ccc(O)cc1)C(=O)O (stereo unspecified)"
  Class: "bucket A"
- Molecule: "NC(CSc1cc(CC(N)C(=O)O)cc(O)c1O)C(=O)O (stereo unspecified)"
  Class: "bucket B"
- Molecule: "NCCc1ccc(O)c(O)c1"
  Class: "bucket B"

With those in mind, consider the next molecule.
Ask: Note: place this molecule into its band. Item: NC(CSc1cc(CC(N)C(=O)O)ccc1O)C(=O)O (stereo unspecified)
Reply: bucket A

====

Reported values of inhibition at 1000 µM for individual entries
- System: Don
- Assay Remarks: Growth inhibition of Don-6 cell lines at 1.0 mM concentration
- Type: functional
- Condition: Cricetulus griseus
Report only the number, with the unit % understood.

- Compound: "N[C@@H](Cc1ccc(O)c(O)c1)C(=O)O [LEVODOPA]"
  inhibition at 1000 µM (%): 6
- Compound: "NC(CSc1cc(O)c(O)cc1CC(N)C(=O)O)C(=O)O (stereo not given)"
  inhibition at 1000 µM (%): 41
- Compound: "Cc1ccc(O)c(O)c1"
  inhibition at 1000 µM (%): 76

Ask: Requested field: inhibition at 1000 µM. Item: NC(CSc1nc(CC(N)C(=O)O)c[nH]1)C(=O)O (stereo not given)
Reply: 0

Ask: Further, for NC(CSc1ccc(SCC(N)C(=O)O)c(O)c1O)C(=O)O (stereo not given) ?
Reply: 30

====

- Test system: Don
- Assay Remarks: Growth inhibition of Don-6 cell lines at 1.0 mM concentration
- Type: functional
- Condition: Cricetulus griseus
Returns Yes if the recorded inhibition at 1000 µM is greater than or equal to 5%, and No otherwise.

Use these answered entries as a reference point.
- Compound: "NC(CSc1ccc(O)c(O)c1)C(=O)O (stereo not given)"
  Class: "Yes"
- Compound: "NC(CSc1c(CC(N)C(=O)O)ccc(O)c1O)C(=O)O (stereo not given)"
  Class: "No"

Ask: Given `Cl.Cl.NCCSc1cc(CCN)cc(O)c1O` , state whether its inhibition at 1000 µM is at least 5%.
Reply: Yes

Ask: Further, for Cc1cc(O)c(O)c(SCC(N)C(=O)O)c1 (stereo not given) ?
Reply: Yes
